Collected Activity values appear next to each entry.
tested on: Enterobacteriaceae; experiment: Antibacterial activity against beta-lactamase SHV or TEM ESBL-producing Enterobacteriaceae assessed as percent susceptible isolates by broth microdilution method; type: functional

# example entries with known answers
compound	Activity
C[C@@H](O)[C@H]1C(=O)N2C(C(=O)O)=C(S[C@@H]3CN[C@H](C(=O)Nc4cccc(C(=O)O)c4)C3)[C@H](C)[C@H]12 [ERTAPENEM]	100%
O=C1CN(/N=C/c2ccc([N+](=O)[O-])o2)C(=O)N1 [NITROFURANTOIN]	45.5%
O=C(O)c1cn(C2CC2)c2cc(N3CCNCC3)c(F)cc2c1=O [CIPROFLOXACIN]	36.4%

The record that follows has no Activity shown yet.
q: Name the recorded Activity for C[C@H]1c2cccc(O)c2C(=O)C2=C(O)[C@]3(O)C(=O)C(C(N)=O)=C(O)[C@@H](N(C)C)[C@@H]3[C@@H](O)[C@@H]21.O [DOXYCYCLINE] .
a: 18.2%

====

tested on: Enterobacteriaceae; assay: Antibacterial activity against beta-lactamase CTX-M ESBL-producing Enterobacteriaceae assessed as percent susceptible isolates by broth microdilution method; format: functional
Collected Activity values appear next to each entry.
Could you give the number and then its unit, please?

# example entries with known answers
compound.smiles	Activity
O=C(O)c1cn(C2CC2)c2cc(N3CCNCC3)c(F)cc2c1=O	4.3%
O=C1CN(/N=C/c2ccc([N+](=O)[O-])o2)C(=O)N1	73.9%
C[C@@H](O)[C@H]1C(=O)N2C(C(=O)O)=C(S[C@@H]3CN[C@H](C(=O)Nc4cccc(C(=O)O)c4)C3)[C@H](C)[C@H]12	100%

q: Name the recorded Activity for C[C@H]1c2cccc(O)c2C(=O)C2=C(O)[C@]3(O)C(=O)C(C(N)=O)=C(O)[C@@H](N(C)C)[C@@H]3[C@@H](O)[C@@H]21.O .
a: 10.9%

====

test system: Enterobacteriaceae; test: Antibacterial activity against beta-lactamase CTX-M ESBL-producing Enterobacteriaceae by broth microdilution method; format: functional
Collected MIC90 values appear next to each entry.
The reply should be a number in µg/mL, with the unit left off.

q: Name the recorded MIC90 for O=C1CN(/N=C/c2ccc([N+](=O)[O-])o2)C(=O)N1 [NITROFURANTOIN] .
a: 64

q: Another: C[C@H]1c2cccc(O)c2C(=O)C2=C(O)[C@]3(O)C(=O)C(C(N)=O)=C(O)[C@@H](N(C)C)[C@@H]3[C@@H](O)[C@@H]21.O [DOXYCYCLINE]
a: 16

q: Another: C[C@@H](O)[C@H]1C(=O)N2C(C(=O)O)=C(S[C@@H]3CN[C@H](C(=O)Nc4cccc(C(=O)O)c4)C3)[C@H](C)[C@H]12 [ERTAPENEM]
a: 0.25

q: Another: O=C(O)c1cn(C2CC2)c2cc(N3CCNCC3)c(F)cc2c1=O [CIPROFLOXACIN]
a: 32
